- Target system: T1, laminin-211 (human, UniProt P24043 23-3122; P07942 22-1786; P11047 34-1609)
- T1 construct: Full-length recombinant human laminin isoform (BioLamina); chains read from the isoform name
- Assay remarks: ELISA, GF coated, laminin 10 nM

[
  {
    "Binder": "brain-derived neurotrophic factor (BDNF) (ligand, UniProt P23560 129-247, looked up, mature; Purchased in mature form) HSDPARRGELSVCDSISEWVTAADKKTAVDMSGGTVTVLEKVPVSKGQLKQYFYETKCNPMGYTKEGCRGIDKRHWNSQCRTTQSYVRALTMDSKKRIGWRFIRIDTSCVCTLTIKRGR",
    "binding result": "binds"
  },
  {
    "Binder": "fibroblast growth factor (FGF)-10 (ligand, UniProt O15520 38-208, looked up, mature; Purchased in mature form) QALGQDMVSPEATNSSSSSFSSPSSAGRHVRSYNHLQGDVRWRKLFSFTKYFLKIEKNGKVSGTKKENCPYSILEITSVEIGVVAVKAINSNYYLAMNKKGKLYGSKEFNNDCKLKERIEENGYNTYASFNWQHNGRQMYVALNGKGAPRRGQKTRRKNTSAHFLPMVVHS",
    "binding result": "binds"
  }
]
